- TARGET ENTITY: Retinoic acid receptor RXR-alpha (Homo sapiens) (UniProt P19793)
- Sequence (P19793 whole entry, looked up): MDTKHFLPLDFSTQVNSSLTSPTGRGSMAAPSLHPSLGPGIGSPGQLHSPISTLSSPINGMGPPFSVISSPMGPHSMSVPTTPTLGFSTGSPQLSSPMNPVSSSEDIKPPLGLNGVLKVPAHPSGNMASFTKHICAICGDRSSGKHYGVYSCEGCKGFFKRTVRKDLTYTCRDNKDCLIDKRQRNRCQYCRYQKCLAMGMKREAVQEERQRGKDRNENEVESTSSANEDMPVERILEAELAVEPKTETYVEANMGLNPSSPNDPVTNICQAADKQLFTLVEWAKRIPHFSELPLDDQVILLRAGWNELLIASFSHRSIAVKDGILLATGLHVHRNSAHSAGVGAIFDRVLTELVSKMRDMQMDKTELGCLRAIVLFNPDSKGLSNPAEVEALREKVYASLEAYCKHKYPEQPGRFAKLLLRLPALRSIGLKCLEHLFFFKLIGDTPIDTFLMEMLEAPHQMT
- METHOD SUMMARY: OT_NURR1_NURR1RXRa_1440: Odyssey Thera (OT) 24-hour HEK293T Protein Complementation Assay for Nurr1/retinoid X receptor (RXR) (AID 2283386)
Inconclusive results are not listed. Active and inactive are the calls of the source. The calls were made as follows: active = hit-call score of the fitted dose curve at least 0.9, where 1 is the maximum; inconclusive = response in the unintended direction; inactive = score below 0.9.
One label from this list, please: yes for active, no for inactive

Worked cases, answers included:
CC(C)[C@@H]1CC[C@@H](C)C[C@H]1O = no
COc1cc([N+](=O)[O-])ccc1N = no

What did this assay record as the result for NS(=O)(=O)O ?
no

Then CCCCCC(C)OC(=O)COc1ccc(Cl)c2cccnc12 (stereo not drawn) ?
no

Then O=C(c1ccccc1)c1ccccc1 ?
no

###

- METHOD SUMMARY: ATG_PXRE_CIS: Attagene CIS-FACTORIAL HepG2 Assay for human Pregnane X Receptor Element (PXRE) (AID 2282957)
- STUDY CONDITIONS: HepG2 Attagene CIS-FACTORIAL PXRE reporter, mRNA; actives raise or lower the signal
Calls of active or inactive are those of the source. How the source made its calls: active means hit-call score of the fitted dose curve at least 0.9, where 1 is the maximum; inactive means score below 0.9.
One label from this list, please: true for active, false for inactive

Brc1ccc(Oc2ccc(Br)cc2Br)cc1 = false

What did this assay record as the result for O=C1Cc2ccccc2N1c1c(Cl)cccc1Cl ?
true

Then CCCCCCCC(OC)OC ?
false

Then CCC1CO1 (stereo not drawn) ?
false

Then CCc1cccc(CC)c1NC(=O)C(=O)O ?
false

Then Oc1c(Cl)ccc(Cl)c1Cl ?
true

###

- METHOD SUMMARY: BSK_3C_SRB: Viability Assessment in the BioMAP Diversity Plus: 3C Assay (AID 2283023);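 also: cells read 24 h after compound dosing; fitted both ways against DMSO so a hit may be signal rise or drop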
- STUDY CONDITIONS: primary human endothelial cells (HUVEC)
The source made the active and inactive calls. How the source made its calls: active means hit-call score of the fitted dose curve at least 0.9, where 1 is the maximum; inactive means score below 0.9.
One label from this list, please: active, inactive

Worked cases, answers included:
O=C(NCc1ncc(C(F)(F)F)cc1Cl)c1c(Cl)cccc1Cl = inactive
Cc1[nH]nc2c1N=C(c1ccccc1Cl)c1cc([N+](=O)[O-])ccc1N2 = active
CCCCCCCCCCCCCCC = inactive
O=C1NS(=O)(=O)c2ccccc21 = inactive
Oc1ccc(Cc2ccccc2O)cc1 = inactive
Cc1cccc2c1ccc1ccccc12 = inactive
CCCCCc1ccc(O)cc1 = active
CCCCCCCCCCCCCCCCCC[N+](C)(C)Cc1ccccc1 = active

What did this assay record as the result for CCOC(=O)CN[C@@H](C(=O)N1CC[C@H]1C(=O)NCc1ccc(/C(N)=N/O)cc1)C1CCCCC1 ?
inactive

###

- Read-out: urokinase plasminogen activator (uPA), PLAU (gene 5328)
- METHOD SUMMARY: BSK_KF3CT_uPA: BioMAP Diversity Plus: KF3CT Assay for urokinase plasminogen activator (uPA) Biomarker Activity (AID 2283075)
- STUDY CONDITIONS: primary human keratinocytes with fibroblasts; actives raise or lower the signal
Calls of active or inactive are those of the source. How the source made its calls: active means hit-call score of the fitted dose curve at least 0.9, where 1 is the maximum; inactive means score below 0.9.
One label from this list, please: Y = active, N = inactive

O=C(O)CCC(F)(F)C(F)(F)C(F)(F)C(F)(F)C(F)(F)C(F)(F)F = N

What did this assay record as the result for CS(=O)(=O)c1ccc([C@@H](CC2CCCC2)C(=O)Nc2cnccn2)cc1Cl ?
N

Then Oc1ccc(Cc2ccccc2O)cc1 ?
N

Then C=CC(=C)CC/C=C(\C)CCC=C(C)C ?
N

Then CC(C)(C)c1ccc(O)c(O)c1 ?
N
